- assayedSystem: α1β3γ2L GABAARs (Homo sapiens, UniProt P14867+P18507+P28472)
- Construct: full-length wild-type subunits co-transfected 1:1:1 (plasmid ratio) in HEK293T cells; EGFP from a separate EF1a promoter on the GABRG2 plasmid; with Gamma-aminobutyric acid receptor subunit gamma-2
- Sequence (P14867 28-456): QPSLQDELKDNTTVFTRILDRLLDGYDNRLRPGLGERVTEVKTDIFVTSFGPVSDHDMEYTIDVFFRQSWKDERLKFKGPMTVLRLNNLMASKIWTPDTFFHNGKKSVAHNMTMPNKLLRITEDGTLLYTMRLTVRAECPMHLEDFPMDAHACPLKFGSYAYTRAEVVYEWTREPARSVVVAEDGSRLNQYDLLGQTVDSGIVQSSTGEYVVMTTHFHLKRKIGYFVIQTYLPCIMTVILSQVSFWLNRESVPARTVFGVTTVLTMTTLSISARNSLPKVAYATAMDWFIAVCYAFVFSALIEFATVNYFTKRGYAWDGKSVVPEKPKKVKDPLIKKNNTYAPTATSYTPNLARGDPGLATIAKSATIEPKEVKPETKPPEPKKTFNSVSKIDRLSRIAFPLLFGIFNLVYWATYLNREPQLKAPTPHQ
- Sequence (P28472 26-473): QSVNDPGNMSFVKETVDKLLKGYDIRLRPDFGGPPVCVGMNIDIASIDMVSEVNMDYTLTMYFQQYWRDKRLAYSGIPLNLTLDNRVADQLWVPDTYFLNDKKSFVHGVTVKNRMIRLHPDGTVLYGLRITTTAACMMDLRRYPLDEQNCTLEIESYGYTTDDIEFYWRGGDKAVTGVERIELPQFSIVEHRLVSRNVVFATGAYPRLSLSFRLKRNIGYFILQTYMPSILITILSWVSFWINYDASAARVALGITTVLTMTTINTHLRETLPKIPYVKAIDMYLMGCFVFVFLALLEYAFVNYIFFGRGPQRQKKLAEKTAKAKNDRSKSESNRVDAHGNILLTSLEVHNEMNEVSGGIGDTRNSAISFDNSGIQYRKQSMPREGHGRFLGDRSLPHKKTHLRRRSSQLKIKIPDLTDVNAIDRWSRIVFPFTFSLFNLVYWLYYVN
- Sequence (P18507 40-475): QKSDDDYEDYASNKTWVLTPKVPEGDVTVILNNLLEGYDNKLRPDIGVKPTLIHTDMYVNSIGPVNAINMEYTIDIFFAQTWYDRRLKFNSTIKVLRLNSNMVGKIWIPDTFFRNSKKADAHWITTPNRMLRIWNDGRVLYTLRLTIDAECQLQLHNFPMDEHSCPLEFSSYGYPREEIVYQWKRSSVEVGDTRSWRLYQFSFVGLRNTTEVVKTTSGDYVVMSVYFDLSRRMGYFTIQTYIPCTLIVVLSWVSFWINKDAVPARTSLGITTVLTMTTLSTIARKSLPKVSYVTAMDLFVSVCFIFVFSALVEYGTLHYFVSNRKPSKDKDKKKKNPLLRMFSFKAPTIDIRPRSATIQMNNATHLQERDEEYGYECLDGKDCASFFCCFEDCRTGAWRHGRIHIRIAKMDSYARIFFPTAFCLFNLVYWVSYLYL
- experiment: whole-cell patch clamp, potentiation of GABA-induced current
pEC50: −log10 of the molar value.
Below is a list of entries, each paired with its recorded pEC50 value.
readoutLabel: pEC50

compound | measured
C=C1CC/C=C(\C)CC[C@@H]2[C@@H]1CC2(C)C | 4.33
Cc1ccc([C@]2(C)CCCC2(C)C)cc1 [(+)-Cuparene] | 4.82
CCOC1O[C@H](CO)[C@@H](O)[C@H](O)[C@H]1O (stereo partly drawn) [Ethyl glucoside] | 4.43

Values were extracted from paper PMC11153716.
